System: SF-539 CNS
Experiment: NCI tumour cell line growth inhibition, 48 h
Decide using TGI: a value greater than or equal to 40 µM is T, a smaller one is F.

1. CCOc1ccc(N2C(=O)C3c4[nH]c5ccccc5c4C4CCC(C(C)(C)C)CC4C3C2=O)cc1 (stereo not drawn) = T
2. CC(CC(=O)CO[C@H]1[C@H](O)[C@@H](O)[C@@H](O)[C@@H]2NC(=O)c3c(cc4c(c3O)OCO4)[C@H]21)OC1OC(CO)C(O)C(O)C1O (stereo partly drawn) = F
3. CC[C@@H]1CN2CCC1C[C@@H]2C(O)c1ccnc2ccc(OCCN3CCN(CCOc4ccc5nccc(C(O)[C@@H]6C[C@@H]7CCN6C[C@@H]7CC)c5c4)CC3)cc12 (stereo partly drawn) = F
4. COc1cc(N(CCC#N)CCC#N)ccc1/C(N=Nc1ccc(C)cc1)=N/NC(=O)c1cc(Br)ccc1O = T
5. Cc1c(NC(=O)C(=O)N=NC(=O)c2ccncc2)c(O)c2ccccc2c1O = F
6. COC(=O)[C@@H]1C=C[C@@H](C#N)n2c(=O)n(-c3ccccc3)c(=O)n21 = T
7. Cc1cc(C)c(S(=O)(=O)N[C@@H](/C=C(\Br)CO)C(C)C)c(C)c1 = T
8. COc1cc2cc(Oc3ccc(NC(=O)Nc4cccc(C(F)(F)F)c4)cc3)c(C)nc2cc1OCCN1CCCCC1 = F
